PROTOCOL_SUMMARY: Solubility in phosphate buffer at pH 7.4
Assay type: physicochemical
Kindly state log10 of solubility for each of the entries shown.
Recorded solubility (log10, µg/mL)

Exam item: Query log10 of solubility for CCCCn1c(=O)c(NC(=O)Nc2c(C(C)C)cc(CN)cc2C(C)C)c(-c2cccc(OC)c2)c2cccnc21.Cl
Marked response: 1.56

Exam item: Query log10 of solubility for CCCCn1c(=O)c(NC(=O)Nc2c(C(C)C)cc(N)cc2C(C)C)c(-c2cccc(OCCCCO)c2)c2cccnc21.Cl
Marked response: 0.70

Exam item: Query log10 of solubility for CCCCn1c(=O)c(NC(=O)Nc2c(C(C)C)ccnc2C(C)C)c(-c2cccc(OC)c2)c2cccnc21.Cl
Marked response: 0.70

Exam item: Query log10 of solubility for CCCCn1c(=O)c(NC(=O)Nc2c(C(C)C)cc(N)cc2C(C)C)c(-c2cccc(OCCO)c2)c2cccnc21.Cl
Marked response: 1.48

Exam item: Query log10 of solubility for CCCCn1c(=O)c(NC(=O)Nc2c(C(C)C)cc(CN(CC)CC)cc2C(C)C)c(-c2cccc(OC)c2)c2cccnc21.Cl
Marked response: 1.79

Exam item: Query log10 of solubility for CCCCn1c(=O)c(NC(=O)Nc2c(C(C)C)cc(N)cc2C(C)C)c(-c2cccc(OCCCN3CCCC3)c2)c2cccnc21.Cl.Cl
Marked response: 2.11

Exam item: Query log10 of solubility for CCCCn1c(=O)c(NC(=O)Nc2c(C(C)C)ccc(N)c2C(C)C)c(-c2cccc(OC)c2)c2cccnc21.Cl
Marked response: 0.00
